Tested on: wild-type P. aeruginosa PAO1
TEST_PROTOCOL: microbe, parasite or virus in culture
Type: cell-based, Pseudomonas aeruginosa
MEASUREMENT_CONDITIONS: PAO1; antibiotic with dUSTBβP 3 at 8 μg/mL
MEASUREMENT_NAME: MICcombo (µg/mL)
Just the number please, in µg/mL, no unit attached.

- MOLECULE: "COc1c(N2C[C@@H]3CCCN[C@@H]3C2)c(F)cc2c(=O)c(C(=O)O)cn(C3CC3)c12 [Moxifloxacin]"
  STUDY_SYSTEM: "wild-type P. aeruginosa PAO1"
  MICcombo [µg/mL]: 0.5

Prompt: # get_value(readout= MICcombo, system= wild-type P. aeruginosa PAO1) for CN(C)c1ccc(O)c2c1C[C@H]1C[C@H]3[C@H](N(C)C)C(O)=C(C(N)=O)C(=O)[C@@]3(O)C(O)=C1C2=O [Minocycline]
Completion: 1

Prompt: Quick one: CCC[C@@H]1C[C@@H](C(=O)N[C@@H]([C@H]2O[C@H](SC)[C@H](O)[C@@H](O)[C@H]2O)[C@H](C)Cl)N(C)C1 [Clindamycin]
Completion: 128
